- Tested on: Candida albicans
- Assay Summary: Antifungal activity against Candida albicans ATCC 90028 after 48 hrs by broth microdilution assay
- Format: functional
- Applied Conditions: ATCC 90028, 48 h
Attribute Measured: MIC
A bare number is not enough; add the unit after it.

Query block: Field request: MIC | item: Cc1ccc(C2=NN(c3nc(-c4ccc(C(F)(F)F)cc4)cs3)C(c3ccc(F)cc3)C2)s1 (stereo not given)
Result block: 250 mg/L

Query block: Look up MIC for this compound: CC(=O)N1CCN(c2ccc(OCC3COC(Cn4ccnc4)(c4ccc(Cl)cc4Cl)O3)cc2)CC1 (stereo not given)
Result block: 62.5 mg/L

Query block: Please give the measured MIC for this compound: Cc1ccc(C2=NN(c3nc(-c4ccc(F)cc4)cs3)C(c3ccc(F)cc3)C2)s1 (stereo not given)
Result block: 250 mg/L

Query block: Could you share which MIC value was measured for Fc1ccc(-c2csc(N3N=C(c4ccc(Cl)s4)CC3c3ccc(F)cc3)n2)cc1 (stereo not given) ?
Result block: 250 mg/L

Query block: Please report the recorded MIC for Cc1ccc(-c2csc(N3N=C(c4ccc(C)s4)CC3c3ccc(F)cc3)n2)cc1 (stereo not given) .
Result block: 500 mg/L

====

- Test system: A549
- Assay Summary: Antiproliferative activity against human A549 cells after 24 hrs by XTT assay
- Assay type: functional, cell-based
- Applied Conditions: A549, 24 h
List of IC50 values.

Example results:
Molecule	IC50
Cc1ccc(C2=NN(c3nc(-c4ccc(C(F)(F)F)cc4)cs3)C(c3ccc(F)cc3)C2)s1 (stereo not drawn)	> 500 µg/mL
COc1ccc(-c2csc(N3N=C(c4ccc(C)s4)CC3c3ccc(F)cc3)n2)cc1 (stereo not drawn)	184 µg/mL

Query block: Tell me the measured IC50 of Cc1ccc(C2=NN(c3nc(-c4ccccc4)cs3)C(c3ccc(F)cc3)C2)s1 (stereo not drawn) , please.
Result block: > 500 µg/mL

====

- Test system: Salmonella typhimurium
- Assay Summary: Mutagenicity in Salmonella typhimurium TA100 at 1.25 mg/ml after 48 hrs by AMES MPF assay in absence of Sprague-Dawley rat liver microsomal S9 fraction relative to baseline
- Assay type: toxicity, organism-based
- Applied Conditions: salmonella enterica subsp. enterica serovar typhimurium
Attribute Measured: fold change (FC)

Completed entries (count: 5):
Compound	fold change (FC)
Cc1ccc(C2=NN(c3nc(-c4ccc(S(C)(=O)=O)cc4)cs3)C(c3ccc(F)cc3)C2)s1 (stereo unspecified)	0.52
Fc1ccc(C2CC(c3ccc(Cl)s3)=NN2c2nc(-c3ccccc3)cs2)cc1 (stereo unspecified)	1.28
Cc1ccc(C2=NN(c3nc(-c4ccc(C#N)cc4)cs3)C(c3ccc(F)cc3)C2)s1 (stereo unspecified)	0.31
Fc1ccc(C2CC(c3ccc(Cl)s3)=NN2c2nc(-c3ccc(C(F)(F)F)cc3)cs2)cc1 (stereo unspecified)	3
Fc1ccc(C2CC(c3ccc(Cl)s3)=NN2c2nc(-c3ccc(Cl)cc3)cs2)cc1 (stereo unspecified)	0.33

Query block: Notebook entry, Salmonella typhimurium assay: fold change (FC) of Fc1ccc(C2CC(c3ccc(Cl)s3)=NN2c2nc(-c3ccc(Br)cc3)cs2)cc1 (stereo unspecified) = ?
Result block: 0

====

// reported MIC for each item listed
- System: Aspergillus flavus
- Assay Summary: Antifungal activity against Aspergillus flavus NRRL 980 after 72 hrs by broth microdilution assay
- Assay type: functional
- Applied Conditions: NRRL 980, 72 h
Lab book: enter the figure in µg/mL, no units written.

// below: answered compounds
Compound	Unit String	Assay Value
CC(=O)N1CCN(c2ccc(OCC3COC(Cn4ccnc4)(c4ccc(Cl)cc4Cl)O3)cc2)CC1 (centres undefined) [KETOCONAZOLE]	µg/mL	15.6
COc1ccc(-c2csc(N3N=C(c4ccc(C)s4)CC3c3ccc(F)cc3)n2)cc1 (centres undefined)	µg/mL	250
Cc1ccc(C2=NN(c3nc(-c4ccccc4)cs3)C(c3ccc(F)cc3)C2)s1 (centres undefined)	µg/mL	250

Query block: Could you share what MIC was measured for Fc1ccc(C2CC(c3ccc(Cl)s3)=NN2c2nc(-c3ccc4c(c3)OCO4)cs2)cc1 (centres undefined) , tested on Aspergillus flavus?
Result block: 250

Query block: Param readout= MIC; system= Aspergillus flavus; entry= Fc1ccc(C2CC(c3ccc(Cl)s3)=NN2c2nc(-c3ccc(Cl)cc3)cs2)cc1 (centres undefined) ; returns value.
Result block: 125

Query block: Write down the reported MIC of Fc1ccc(C2CC(c3ccc(Cl)s3)=NN2c2nc(-c3ccc(C(F)(F)F)cc3)cs2)cc1 (centres undefined) , test system: Aspergillus flavus.
Result block: 125

Query block: Which measured MIC belongs to Cc1ccc(C2=NN(c3nc(-c4ccc(Br)cc4)cs3)C(c3ccc(F)cc3)C2)s1 (centres undefined) , tested on Aspergillus flavus?
Result block: 250

Query block: Short answer please: MIC, Aspergillus flavus, entry Cc1ccc(-c2csc(N3N=C(c4ccc(C)s4)CC3c3ccc(F)cc3)n2)cc1 (centres undefined)
Result block: 250

Query block: Form: Entry = Fc1ccc(-c2csc(N3N=C(c4ccc(Cl)s4)CC3c3ccc(F)cc3)n2)cc1 (centres undefined) | System = Aspergillus flavus | MIC = ____
Result block: 125

====

fold change (FC) listing for selected compounds.
- Test system: Salmonella typhimurium
- Assay Summary: Mutagenicity in Salmonella typhimurium TA98 at 0.3125 mg/ml after 48 hrs by AMES MPF assay in presence of Sprague-Dawley rat liver microsomal S9 fraction relative to baseline
- Format: toxicity, organism-based
- Applied Conditions: salmonella enterica subsp. enterica serovar typhimurium
Just the number.

Known fold change (FC) results, listed for orientation:
Compound	fold change (FC)
Fc1ccc(C2CC(c3ccc(Cl)s3)=NN2c2nc(-c3ccc(C(F)(F)F)cc3)cs2)cc1 (stereo unspecified)	0.55
Fc1ccc(C2CC(c3ccc(Cl)s3)=NN2c2nc(-c3ccccc3)cs2)cc1 (stereo unspecified)	0.68
Cc1ccc(C2=NN(c3nc(-c4ccc(C#N)cc4)cs3)C(c3ccc(F)cc3)C2)s1 (stereo unspecified)	0.18
Fc1ccc(C2CC(c3ccc(Cl)s3)=NN2c2nc(-c3ccc(Br)cc3)cs2)cc1 (stereo unspecified)	0.81
Fc1ccc(C2CC(c3ccc(Cl)s3)=NN2c2nc(-c3ccc(Cl)cc3)cs2)cc1 (stereo unspecified)	0.81

Please examine the following record next.
Query block: Look up fold change (FC): Cc1ccc(C2=NN(c3nc(-c4ccc(S(C)(=O)=O)cc4)cs3)C(c3ccc(F)cc3)C2)s1 (stereo unspecified)
Result block: 0.27

====

We begin with a simple list: items and their reported MIC.
- System: Fusarium solani
- Assay Summary: Antifungal activity against Fusarium solani NRRL 13414 after 72 hrs by broth microdilution assay
- Assay type: functional
- Applied Conditions: NRRL 13414, 72 h

Check out these entries, answers already filled in.
Compound	MIC
Cc1ccc(C2=NN(c3nc(-c4ccccc4)cs3)C(c3ccc(F)cc3)C2)s1 (stereo not drawn)	250 µg/mL
Fc1ccc(C2CC(c3ccc(Cl)s3)=NN2c2nc(-c3ccc(C(F)(F)F)cc3)cs2)cc1 (stereo not drawn)	250 µg/mL
Cc1ccc(C2=NN(c3nc(-c4ccc([N+](=O)[O-])cc4)cs3)C(c3ccc(F)cc3)C2)s1 (stereo not drawn)	250 µg/mL
Cc1ccc(C2=NN(c3nc(-c4ccc5c(c4)OCO5)cs3)C(c3ccc(F)cc3)C2)s1 (stereo not drawn)	250 µg/mL
Fc1ccc(C2CC(c3ccc(Cl)s3)=NN2c2nc(-c3ccc4c(c3)OCO4)cs2)cc1 (stereo not drawn)	250 µg/mL
COc1ccc(-c2csc(N3N=C(c4ccc(Cl)s4)CC3c3ccc(F)cc3)n2)cc1 (stereo not drawn)	250 µg/mL
Cc1ccc(C2=NN(c3nc(-c4ccc(C#N)cc4)cs3)C(c3ccc(F)cc3)C2)s1 (stereo not drawn)	250 µg/mL
O=[N+]([O-])c1ccc(-c2csc(N3N=C(c4ccc(Cl)s4)CC3c3ccc(F)cc3)n2)cc1 (stereo not drawn)	250 µg/mL

Okay, now this compound:
Query block: Given Cc1ccc(C2=NN(c3nc(-c4ccc(F)cc4)cs3)C(c3ccc(F)cc3)C2)s1 (stereo not drawn) , state its recorded MIC.
Result block: 250 µg/mL

====

Listing: fold change (FC) of selected molecules
- System: Salmonella typhimurium
- Assay Summary: Mutagenicity in Salmonella typhimurium TA100 at 0.625 mg/ml after 48 hrs by AMES MPF assay in presence of Sprague-Dawley rat liver microsomal S9 fraction relative to baseline
- Type: toxicity, organism-based
- Applied Conditions: salmonella enterica subsp. enterica serovar typhimurium
Respond with the number and no other words.

Molecule	fold change (FC)
Fc1ccc(C2CC(c3ccc(Cl)s3)=NN2c2nc(-c3ccc(Cl)cc3)cs2)cc1 (stereo unspecified)	3.46
Fc1ccc(C2CC(c3ccc(Cl)s3)=NN2c2nc(-c3ccc(C(F)(F)F)cc3)cs2)cc1 (stereo unspecified)	2.54
Cc1ccc(C2=NN(c3nc(-c4ccc(C#N)cc4)cs3)C(c3ccc(F)cc3)C2)s1 (stereo unspecified)	0.86

Query block: Request the reported fold change (FC) associated with Fc1ccc(C2CC(c3ccc(Cl)s3)=NN2c2nc(-c3ccccc3)cs2)cc1 (stereo unspecified)
Result block: 2.77

Query block: // fold change (FC) lookup, key: Fc1ccc(C2CC(c3ccc(Cl)s3)=NN2c2nc(-c3ccc(Br)cc3)cs2)cc1 (stereo unspecified)
Result block: 3.92

Query block: Which measured fold change (FC) value corresponds to Cc1ccc(C2=NN(c3nc(-c4ccc(S(C)(=O)=O)cc4)cs3)C(c3ccc(F)cc3)C2)s1 (stereo unspecified) ?
Result block: 0.93
